# STUDY TARGET: glutamate recognition site of the NMDA receptor
# ASSAY SUMMARY: [3H]-glutamate receptor binding assay, synaptosomal membrane from rat cortex
# COND: rat cortex synaptosomal membrane; read-out: affinity in [3H]-glutamate binding assay (ability to displace 50% of the radioligand)
QUANTITY KIND: IC50 (nM)
Give bare numbers, in nM.

N[C@@H](Cc1cc(CP(=O)(O)O)cc(-c2cccc3ccccc23)c1)C(=O)O    4

Ask: Reported IC50, compound NC(Cc1cc(CP(=O)(O)O)cc(-c2ccccc2)c1)C(=O)O (single isomer, unassigned) [reference compound] : ____
Reply: 115

###

# STUDY TARGET: glutamate recognition site of the NMDA receptor
# ASSAY SUMMARY: [3H]-CGP 39653 receptor binding assay, synaptosomal membrane from rat cortex
# COND: read-out: affinity in [3H]-CGP binding assay (ability to displace 50% of the radioligand)
Give pIC50 for every item shown.
Numbers only, as −log10 of the molar value.

N[C@@H](Cc1cc(CP(=O)(O)O)cc(-c2cccc3ccccc23)c1)C(=O)O    8.10

Now, please, on to the next compound.
Ask: Enter reported pIC50 observed with glutamate recognition site of the NMDA receptor for NC(Cc1cc(CP(=O)(O)O)cc(-c2ccccc2)c1)C(=O)O (single isomer, unassigned) [reference compound]
Reply: 7.01
